System: NCI-H23 lung
assay: NCI-60 one-dose screen, 48 h (100 = growth as untreated, 0 = no growth, -100 = all killed)
protocolConditions: 10 µM unless noted
Method: Growth inhibition of the NCI-H23 human Non-Small Cell Lung tumor cell line is measured as a screen for anti-cancer activity. Cells are grown in 96 well plates and exposed to the test compound for 48 hours. Compounds are tested at a single concentration, which is 10^-5 M for most compounds. The reported endpoint is percent growth (GI% or GIPRCNT), where numbers from 0 - 100% represent growth inhibition, and numbers from -100% - 0 represent cell death. […]
Compounds without any hit were thinned out: in the full panel of roughly 83,000, 20% have a hit.
quantityName: growth (%)
Quick reminder: number only, in %, skip the unit.

INPUT: Provide one value: measured growth of COC(=O)[C@]1(C)CCC[C@]2(C)[C@H]3C[C@@H]4[C@H]5[C@@H]6CC/C(=N\OCC/C(N)=N/O)[C@H]5[C@@]3(CC[C@H]21)CC4(C(C)C)O6
OUTPUT: 73.4

INPUT: Provide one value: measured growth of N#Cc1ccccc1-c1ccc(CN2C(=O)S/C(=C\c3ccc(Br)cc3)C2=O)cc1
OUTPUT: 96.6

INPUT: Provide one value: measured growth of COc1ccc(-c2cc(C(=O)N3N=C(c4ccc(N)cc4)CC3c3ccc(Cl)cc3)c3ccccc3n2)cc1 (stereo not drawn)
OUTPUT: 48.1

INPUT: Provide one value: measured growth of Oc1c(CN2CCC(N3CCOCC3)CC2)cc(Cc2cc(CN3CCC(N4CCOCC4)CC3)c(O)c3ncccc23)c2cccnc12
OUTPUT: 40.8

INPUT: Provide one value: measured growth of COc1cc(Cc2cc(OC)c(O)c(OC)c2)cc(OC)c1O
OUTPUT: 87.6

INPUT: Provide one value: measured growth of Cc1ccc2cnc(N)c(C#Cc3cc(C(=O)Nc4ccc(CN5CCN(C)CC5)c(C(F)(F)F)c4)cnc3C)c2c1
OUTPUT: -29.6

INPUT: Provide one value: measured growth of C[C@@H]1CN(c2cnc(C(=O)Nc3cc(F)cc4cccnc34)cn2)C[C@H](C)N1
OUTPUT: 63

INPUT: Provide one value: measured growth of COc1cc(-c2ccc[nH]2)[nH]c1/C=C1\N=C(C)C(CC(=O)OCC(C)(C)C)=C1C
OUTPUT: -46.8

INPUT: Provide one value: measured growth of C/C(Cc1ccc(Cl)cc1)=C(\c1ccc(OCCN2CCCCCC2)cc1)c1ccc(OC(=O)c2ccccc2)cc1
OUTPUT: 46.8

INPUT: Provide one value: measured growth of O=C(Nc1ccccc1O)c1ccc(CNc2ccnc(C(F)(F)F)c2)cc1
OUTPUT: 39.1

INPUT: Provide one value: measured growth of CN1C(=O)/C(=C/c2ccc(C(=O)Nc3ncc(Cc4cc(Cl)ccc4Cl)s3)cc2)SC1=S
OUTPUT: 67.6

INPUT: Provide one value: measured growth of CCOC(=O)C/C(=N\Nc1cc(=O)[nH]c2ccc(C)cc12)C(=O)OCC
OUTPUT: 103

INPUT: Provide one value: measured growth of O=C1C=CC2(O)OC/C(=C\c3ccccc3)C(O)=C2C1=O (stereo not drawn)
OUTPUT: 36.1

INPUT: Provide one value: measured growth of CC1(C)CC(=O)C2=C(C1)C(c1ccc(Cl)cc1)n1ncc(C#N)c1N2 (stereo not drawn)
OUTPUT: 99.6

INPUT: Provide one value: measured growth of Cc1nc2sc(C(=O)Nc3cccc4ccccc34)c(N)c2cc1C(=O)c1ccccc1
OUTPUT: 40.2

INPUT: Provide one value: measured growth of N#Cc1c(-c2ccc(Br)cc2)nc2c(N=Nc3ccc(S(N)(=O)=O)cc3)c(N)nn2c1N
OUTPUT: 63.7

INPUT: Provide one value: measured growth of Cn1c(=O)c2[nH]c(SC/C(=N/O)c3ccc(Br)cc3)nc2n(C)c1=O
OUTPUT: 35.7

INPUT: Provide one value: measured growth of COCCn1cc(-c2nc(-c3cc4cccnc4n3C)cs2)c2ccccc21
OUTPUT: 39.4

INPUT: Provide one value: measured growth of CCOC(=O)c1[nH]cc2c1CCc1sc(Nc3ccccn3)nc1-2
OUTPUT: 66.7

INPUT: Provide one value: measured growth of CN(C)c1ccc(/C=N\NC(=O)c2ccc3nc(-c4ccc(Cl)cc4)[nH]c3c2)cc1
OUTPUT: 61.4

INPUT: Provide one value: measured growth of CCN(CC)CCOc1ccc(/C(=C(\C)Cc2ccc(OC)cc2)c2ccc(OC(=O)NCc3ccccc3)cc2)cc1
OUTPUT: 88.4

INPUT: Provide one value: measured growth of Cc1cc(Cl)nc(N2CCN(CCNc3ccnc4cc(Cl)ccc34)CC2)n1
OUTPUT: 27.2

INPUT: Provide one value: measured growth of CCCc1cc(=O)oc2c(C(=O)CC(C)C)c(O)c(CC=C(C)C)c(O)c12
OUTPUT: -29.1

----------
Test system: RXF 393 renal
assay: NCI-60 one-dose screen, 48 h (100 = growth as untreated, 0 = no growth, -100 = all killed)
protocolConditions: 10 µM unless noted
The panel holds about 83,000 compounds, 20% with a hit somewhere; the sample as a whole holds those more often.
For each record, write down the corresponding growth.
Quick reminder: number only, in %, skip the unit.

INPUT: With RXF 393 renal as the test system, provide measured growth for this molecule: O=C1CCC(C(=O)N/N=C/c2cc(F)ccc2F)N1 (centres undefined)
OUTPUT: 108

INPUT: With RXF 393 renal as the test system, provide measured growth for this molecule: COc1ccc(OC)c(Nc2nnc(-c3cc(OC)c(OC)c(OC)c3)o2)c1
OUTPUT: 110

INPUT: With RXF 393 renal as the test system, provide measured growth for this molecule: O=C(/C=C/C12c3ccccc3C(c3ccccc31)C1C(=O)NC(=O)C12)c1ccc(Cl)cc1Cl (centres undefined)
OUTPUT: -4.59

INPUT: With RXF 393 renal as the test system, provide measured growth for this molecule: N#CC1=C(N)Oc2c(sc3c(F)cccc23)C1c1ccc([N+](=O)[O-])cc1 (centres undefined)
OUTPUT: -57.3

----------
For each record, write down the corresponding growth.
System: U251 CNS
assay: NCI-60 one-dose screen, 48 h (100 = growth as untreated, 0 = no growth, -100 = all killed)
protocolConditions: 10 µM unless noted
Method: Growth inhibition of the U251 human tumor cell line is measured as a screen for anti-cancer activity. Cells are grown in 96 well plates and exposed to the test compound for 48 hours. Compounds are tested at a single concentration, which is 10^-5 M for most compounds. The reported endpoint is percent growth (GI% or GIPRCNT), where numbers from 0 - 100% represent growth inhibition, and numbers from -100% - 0 represent cell death. For example, a value of 40 represents 60% growth inhibition. […]
The panel holds about 83,000 compounds, 20% with a hit somewhere; the sample as a whole holds those more often.
Quick reminder: number only, in %, skip the unit.

INPUT: Provide one value: measured growth of Cc1nn(C)c2ncnc(N/N=C/c3cccc(O)c3O)c12
OUTPUT: 15.7

INPUT: Provide one value: measured growth of C=C(C)[C@@H]1CC[C@]2(CO)CC[C@]3(C)[C@H](CC[C@@H]4[C@@](C)(CCCN)[C@H](C(=C)C)CC[C@]43C)[C@@H]12
OUTPUT: -88.6

INPUT: Provide one value: measured growth of N=C(N)c1ccc(-c2ccc(-c3ccccc3)o2)o1
OUTPUT: 10.3

INPUT: Provide one value: measured growth of CCCCO[C@@H]1C=C2[C@H]3CC(C)(C)C(=O)C[C@]3(C(=O)O[C@@H]3O[C@H](CO[C@@H]4O[C@H](CO)[C@@H](OC5OC(C)C(O)C(O)C5O)[C@H](O)[C@H]4O)[C@@H](O)[C@H](O)[C@H]3O)CC[C@@]2(C)[C@]2(C)CC[C@H]3C(C)(C)C(=O)CC[C@]3(C)[C@@H]12 (stereo partly specified)
OUTPUT: 56.4

INPUT: Provide one value: measured growth of CN(C)Cc1cc(C(C)(C)C)cc(Br)c1O
OUTPUT: 107

INPUT: Provide one value: measured growth of COc1ccc(Nc2ncc(C#N)c(NCCCNC(=O)C3CCC3)n2)cc1
OUTPUT: 60.1

----------
System: RXF 393 renal
assay: NCI-60 one-dose screen, 48 h
protocolConditions: 10 µM unless noted
The panel holds about 83,000 compounds, 20% with a hit somewhere; the sample as a whole holds those more often. Calls of active or inactive are those of the source. The calls were made as follows: active = growth percent below 10; inactive = the rest.
The reply should be one of these categories: active, inactive

INPUT: Per the assay record, what outcome was assigned to CCOC(=O)C#Cc1c(C(=O)OCC)nnn1[C@@H]1O[C@H](COC)[C@@H](OC)[C@H]1OC ?
OUTPUT: inactive

INPUT: Per the assay record, what outcome was assigned to C=CN(C(=O)N1CCN(c2cc3c(cc2F)c(=O)c(C(=O)O)cn3C2CC2)CC1)c1nc(-c2ccccc2)cs1 ?
OUTPUT: inactive

INPUT: Per the assay record, what outcome was assigned to COc1ccc(C/C(C)=C(\c2ccc(O)cc2)c2ccc(OCCN3CCCCC3)cc2)cc1 ?
OUTPUT: inactive

INPUT: Per the assay record, what outcome was assigned to O=S(=O)(Nc1cc(F)cc(F)c1)c1ccc(-c2cnc(C3CC3)o2)cc1 ?
OUTPUT: inactive

INPUT: Per the assay record, what outcome was assigned to COc1nc(/C=C\Nc2ccc3c(c2)OCCOCCOCCOCCO3)nc(OC)n1 ?
OUTPUT: inactive

INPUT: Per the assay record, what outcome was assigned to COC12C=C/C(=C(/C(=O)OCCSc3ccnn3C)C(=O)CCCCCCCCC3(OC)C=C/C(=C(/C(=O)OCCSc4ccnn4C)C(=O)CCCCCCCC1)O3)O2 ?
OUTPUT: active

INPUT: Per the assay record, what outcome was assigned to CN(C)CCCn1c2c(c3cnccc3c1=O)C(=O)c1ccccc1-2 ?
OUTPUT: active

INPUT: Per the assay record, what outcome was assigned to Cc1ccc(C(=O)c2ccc(CC(=O)N/N=C/c3cccc(O)c3O)n2C)cc1 ?
OUTPUT: inactive

INPUT: Per the assay record, what outcome was assigned to N#Cc1nn(-c2cc(=O)[nH]c3ccc(Br)cc23)c(N)c1C#N ?
OUTPUT: inactive
